Cited source for all entries: patent US20080318842A1

# Test system: MRSA K24 strain
# MEASUREMENT PROTOCOL: Imipenem activity-potentiating effect, paper-disc method on plate containing imipenem
# Type: cell-based, methicillin-resistant Staphylococcus aureus
# RUN PARAMETERS: diameter of inhibition circle; 10 μg agent per 6 mm paper disc; plate with imipenem 10 μg/mL; 37° C., 20 hours
# Description: In this example, clinically isolated MRSA K24 strain was used as an assay strain. […] The antibacterial activities against the assay strain in the plates were evaluated by a paper-disc method as follows. […]
REPORTED METRIC: MRSA (mm) [10 μg/6 mm disc]

• COC(=O)[C@@H]1Cc2cc(Br)c(c(Br)c2)Oc2cc(cc(I)c2O)C[C@H](N)C(=O)N[C@@H](C(C)OCc2ccccc2)C(=O)N1 (stereo partly drawn) = 8 mm

Param item: COC(=O)C1Cc2cc(Br)c(c(Br)c2)Oc2cc(cc(I)c2O)C[C@H](NC(=O)OC(C)(C)C)C(=O)N[C@@H]([C@H](C)OCc2ccccc2)C(=O)N1 (stereo partly drawn) ; param system: MRSA K24 strain; output MRSA (mm) [10 μg/6 mm disc]: 8 mm

Reported MRSA (mm) [10 μg/6 mm disc] (MRSA K24 strain) for entry COC(=O)C1Cc2cc(Br)c(c(Br)c2)Oc2cc(cc(I)c2O)C[C@H](NC(=O)OCc2ccccc2)C(=O)N[C@@H]([C@H](C)OCc2ccccc2)C(=O)N1 (stereo partly drawn) is 8 mm
